Source of measurements: ChEMBL document CHEMBL5154945

test system: PC-3M; test: Anticancer activity in human PC-3M cells expressing PTB/GFP fusion protein assessed as perinucleolar compartment disassembly and measured after 24 hrs by Hoechst 33342 staining based microscopic method; assay type: functional, cell-based; settings: read-out: IC50
Let's look at some compounds and their measured IC50.

N=c1c2c(-c3ccccc3)cn(Cc3ccccc3)c2ncn1C1CCOCC1 :: > 20 µM

[Q] Output measured IC50 for this item: `COc1ccc(-c2c(-c3ccc(OC)cc3)n(Cc3ccccc3)c3ncn([C@H]4CC[C@H](OC)CC4)c(=N)c23)cc1`
[A] > 20 µM

[Q] Output measured IC50 for this item: `N=c1c2c(-c3ccccc3)c(-c3ccccc3)n(Cc3ccccc3)c2ncn1[C@H]1CC[C@H](O)CC1`
[A] 0.2 µM

[Q] Output measured IC50 for this item: `N#Cc1c(-c2ccccc2)c(-c2ccccc2)n(Cc2ccccc2)c1/N=C/N[C@H]1CC[C@H](O)CC1`
[A] > 20 µM

* * *

test: Microsomal stability in CD1 mouse liver microsomes assessed as half life measured upto 60 mins in presence of NADPH by LC-MS analysis; conditions: mouse, microsomes, 1 h
Let's look at some compounds and their measured log10 of t1/2.
Parameter value (number): base-10 log of t1/2 in min.

COCCn1cnc2c(c(-c3ccccc3)c(-c3ccccc3)n2Cc2ccccc2)c1=N :: 0.98

[Q] Output measured log10 of t1/2 for this item: `N=c1c2c(-c3ccccc3)c(-c3ccccc3)n(Cc3ccccc3)c2ncn1C1CCN(Cc2ccccc2)CC1`
[A] 1.51

[Q] Output measured log10 of t1/2 for this item: `N=c1c2c(-c3ccccc3)c(-c3ccccc3)n(Cc3ccccc3)c2ncn1[C@H](CO)Cc1ccccc1`
[A] 0.74

[Q] Output measured log10 of t1/2 for this item: `N=c1c2c(-c3ccccc3)c(-c3ccccc3)n(Cc3ccc(S(N)(=O)=O)cc3)c2ncn1CC1CCOCC1`
[A] 0.92

[Q] Output measured log10 of t1/2 for this item: `CN(C)CCCn1cnc2c(c(-c3ccccc3)c(-c3ccccc3)n2CCc2ccccc2)c1=N`
[A] 1.89

[Q] Output measured log10 of t1/2 for this item: N=c1c2c(-c3ccccc3)c(-c3ccccc3)n(Cc3ccccc3)c2ncn1C[C@@H]1CCCC[C@H]1O (relative stereo)
[A] 0.38

[Q] Output measured log10 of t1/2 for this item: `N=c1c2c(-c3ccccc3)c(-c3ccccc3)n(CCc3ccccc3)c2ncn1CC1CCOCC1`
[A] 0.86

[Q] Output measured log10 of t1/2 for this item: `N=c1c2c(-c3ccccc3)c(-c3ccccc3)n(Cc3ccccc3)c2ncn1CCCCCO`
[A] 0.95

[Q] Output measured log10 of t1/2 for this item: COc1ccc(Cn2c(-c3ccccc3)c(-c3ccccc3)c3c(=N)n(CC4CCCO4)cnc32)cc1 (stereo unspecified)
[A] 0.97

* * *

conditions: mouse, in vivo, ip, 50 mg/kg, 0.5 h
OBSERVED PROPERTY: Cmax (µM)
Supply the numeric figure in µM, leaving out any unit text.

[Q] Output measured Cmax for this item: N=c1c2c(-c3ccccc3)c(-c3ccccc3)n(Cc3ccccc3)c2ncn1[C@H]1CC[C@H](O)CC1 [ML-246]
[A] 20.3

* * *

Let's look at some compounds and their measured log10 of IC50.
system: PC-3M; assay: Anticancer activity in human PC-3M cells expressing PTB/GFP fusion protein assessed as perinucleolar compartment disassembly and measured after 24 hrs by Hoechst 33342 staining based microscopic method; type: functional, cell-based; conditions: read-out: pIC50 (converted)
Parameter value (number): base-10 log of IC50 in nM.

N=c1c2c(-c3ccccc3)c(-c3ccccc3)n(Cc3ccccc3)c2ncn1CCO :: 2.92

[Q] Output measured log10 of IC50 for this item: N=c1c2c(-c3ccccc3)c(-c3ccccc3)n(Cc3ccccc3)c2ncn1C[C@@H]1CCCC[C@H]1CO (relative stereo)
[A] 2.97
